- experimental-system: Activated human plasma kallikrein (Enzyme Research Laboratories, HPKa 1303) (human, UniProt P03952 20-638)
- Sequence (P03952 20-638 limits assumed): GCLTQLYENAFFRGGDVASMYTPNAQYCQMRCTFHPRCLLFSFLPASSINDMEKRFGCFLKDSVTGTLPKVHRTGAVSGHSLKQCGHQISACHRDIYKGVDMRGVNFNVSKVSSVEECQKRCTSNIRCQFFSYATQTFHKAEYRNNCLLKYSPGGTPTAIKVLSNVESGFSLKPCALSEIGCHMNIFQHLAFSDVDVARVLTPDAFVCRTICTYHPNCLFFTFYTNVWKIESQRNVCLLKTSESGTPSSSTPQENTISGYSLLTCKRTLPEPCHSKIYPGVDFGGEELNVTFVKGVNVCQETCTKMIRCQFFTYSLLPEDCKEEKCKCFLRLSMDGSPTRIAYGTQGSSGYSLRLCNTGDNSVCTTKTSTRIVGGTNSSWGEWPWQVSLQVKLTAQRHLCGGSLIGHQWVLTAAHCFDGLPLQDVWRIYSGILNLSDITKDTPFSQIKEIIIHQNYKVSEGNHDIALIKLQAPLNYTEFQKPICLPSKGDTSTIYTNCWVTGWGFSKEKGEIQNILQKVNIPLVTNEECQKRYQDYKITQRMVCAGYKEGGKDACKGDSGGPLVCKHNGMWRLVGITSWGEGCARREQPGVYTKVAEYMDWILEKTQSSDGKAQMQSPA
- experiment-notes: cell-based or functional assay
Numbered stars: 1 amine (or outer) side, 2 acyl side, 3 side chain; on linkers, the order of the positions; unused ones are H or OH. Bridge positions count the residues as written; N and C are the ends. Square brackets hold non-standard residues; d marks the D form. Ends that are not written are not given here. * marks the point of attachment. mXylyl = xylyl linker from dibromoxylene joining the two cysteines; des‑NH2 = missing amino-terminal amine group; hexyltetrazolyl‑mXylyl = not defined here; Gly(octyl) = CCCCCCCC[C@H](N)C(=O)O; pXylylene = c1cc(C[*:2])ccc1C[*:1]; dPhg = N[C@@H](C(=O)O)c1ccccc1; Pen = CC(C)(S)[C@H](N)C(=O)O; Phg = N[C@H](C(=O)O)c1ccccc1; Tle = CC(C)(C)[C@H](N)C(=O)O; oXylyl = ortho-xylyl linker; NMeC = CN[C@@H](CS)C(=O)O; azaTrp = not defined here; Heptanoyl = CCCCCCC(=O)*; Nva = CCC[C@H](N)C(=O)O; Thp = NC1(C(=O)O)CCOCC1; Ac4c = NC1(C(=O)O)CCC1; Mpa = O=C(O)CCS
Here, each record is paired with measured Avg. IC50 data.
measure: Avg. IC50 (nM)

INSERT INTO results (binder, measure, limit_operator, reported_result) VALUES
  ('[Mpa][code a]S[Phg]C[azaTrp][Tle]-NH2 (linker 1-5 via mXylyl; reading uncertain; also: printed as [mXylyl(1,5)](des-NH2)C-a-S-Phg-C-azaTrp-Tbg-NH2) [R2080]', 'Avg. IC50', '=', 13200),
  ('{des‑NH2}-C[Phg]CR[Tle]-NH2 (linker 1-3 via oXylyl; not fully specified (residue 1); printed as [oXylyl(1,5)](des-NH2)C-Phg-CR-Tbg-NH2) [R2083]', 'Avg. IC50', '>', 8900),
  ('Ac-CAS[Phg]CR[Tle]-NH2 (linker 1-5 via mXylyl) [R2036]', 'Avg. IC50', '=', 6.4),
  ('MCESICRELRYSE-NH2 (linker 2-6 via mXylyl) [R2086]', 'Avg. IC50', '=', 8930),
  ('[Nva][Pen]ESICRV-NH2 (linker 2-6 via mXylyl) [R2031]', 'Avg. IC50', '=', 1460),
  ('{des‑NH2}-CGA[Phg]CR[Tle]-NH2 (linker 1-5 via mXylyl; not fully specified (residue 1); printed as [mXylyl(1,5)](des-NH2)C-GA-Phg-CR-Tbg-NH2) [R2076]', 'Avg. IC50', '=', 11.4),
  ('MCESICRV-NH2 (linker 2-6 via mXylyl) [R2006]', 'Avg. IC50', '=', 11.8),
  ('Ac-CESICRVLRYS-NH2 (linker 1-5 via mXylyl) [R2056]', 'Avg. IC50', '=', 1.9),
  ('{des‑NH2}-C[Ac4c]A[Phg]CR[Tle]-NH2 (linker 1-5 via mXylyl) [R2097]', 'Avg. IC50', '=', 2),
  ('[Nva]CEP[Phg]CR[Tle]-NH2 (linker 2-6 via mXylyl) [R2030]', 'Avg. IC50', '=', 25),
  ('Heptanoyl-CESICRV-NH2 (linker 1-5 via mXylyl) [R2041]', 'Avg. IC50', '=', 24.2),
  ('{des‑NH2}-CESICRV-NH2 (linker 1-5 via mXylyl; not fully specified (residue 1); printed as [mXylyl(1,5)](des-NH2)C-ESICRV-NH2) [R2051]', 'Avg. IC50', '=', 12.9),
  ('{des‑NH2}-C[Gly(octyl)]S[Phg]CR[Tle]-NH2 (linker 1-5 via mXylyl; not fully specified (residue 1); printed as [mXylyl(1,5)](des-NH2)C-OctG-S-Phg-CR-Tbg-NH2) [R2073]', 'Avg. IC50', '=', 18.6),
  ('MCESI[NMeC]RV-NH2 (linker 2-6 via mXylyl) [R2101]', 'Avg. IC50', '=', 12700),
  ('Heptanoyl-CAS[Phg]CR[Tle]-NH2 (linker 1-5 via mXylyl; not fully specified (residue 2); printed as [mXylyl(1,5)]Heptanoyl-C-a-S-Phg-C-R-Tbg-NH2) [R2067]', 'Avg. IC50', '=', 19.1),
  ('MCESICRV-NH2 (linker 2-6 via pXylylene) [R2043]', 'Avg. IC50', '=', 617),
  ('{des‑NH2}-C[Thp]A[dPhg]CR[Tle]-NH2 (linker 1-5 via mXylyl) [R2094]', 'Avg. IC50', '=', 46.9),
  ('Ac-MCESICRV-NH2 (linker 2-6 via mXylyl) [R2008]', 'Avg. IC50', '=', 10.2),
  ('MCESICRV-NH2 (linker 2-6 via hexyltetrazolyl‑mXylyl; reading uncertain; also: printed as [hexyltetrazolyl-mXylyl(2,6)]MCESICRV-NH2) [R2028]', 'Avg. IC50', '=', 714);
